# measured.target: mTOR enzyme (mTOR(1360-2549)+GBL) (Homo sapiens)
# experiment: In vitro mTOR kinase assay (TR-FRET)
# test.conditions: 0.25 nM mTOR+GBL, 8 uM ATP; values tied to compounds by order of Table 1; 'x or y' = two alternative values for separated diastereomers of unassigned stereochemistry; read-out: activity level (Ki) in the mTOR kinase assay
pKi: −log10 of the molar value.
recorded.endpoint: pKi

{"columns": ["chemical.structure", "assay.result"],
 "data": [
  ["C[C@H]1COCCN1c1nc(-c2ccc(NC(=O)Nc3cnn(C)c3)cc2)nc2c1CCCO2", 8.70],
  ["C[C@H]1COCCN1c1nc(-c2ccc(NC(=O)NCC(F)(F)F)cc2)nc2c1COCC2", 7.80],
  ["Nc1nc2ccc(-c3nc4c(c(N5C[C@H]6CC[C@@H](C5)O6)n3)CCCO4)cc2[nH]1", 7.92],
  ["C[C@H]1COCCN1c1nc(-c2ccc(NC(=O)NC3CCC3)cc2)nc2c1COCC2", 7.85],
  ["C[C@H]1COCCN1c1nc(-c2ccc(NC(=O)NC3COC3)cc2)nc2c1COCC2", 7.89],
  ["Cc1coc(NC(=O)Nc2ccc(-c3nc4c(c(N5CCOC[C@@H]5C)n3)CCC3(CC3)O4)cc2)n1", 9.00],
  ["O=C(Nc1ccc(-c2nc3c(c(N4CCOCC4)n2)CCC2(CC2)O3)cc1)NC1COC1", 8.22],
  ["CC[C@H]1COCCN1c1nc(-c2cnc(N)nc2)nc2c1CCCO2", 6.99]
]}

====

# measured.target: mTOR enzyme (mTOR(1360-2549)+GBL) (Homo sapiens, UniProt P42345)
# Sequence (P42345 1360-2549, species assumed): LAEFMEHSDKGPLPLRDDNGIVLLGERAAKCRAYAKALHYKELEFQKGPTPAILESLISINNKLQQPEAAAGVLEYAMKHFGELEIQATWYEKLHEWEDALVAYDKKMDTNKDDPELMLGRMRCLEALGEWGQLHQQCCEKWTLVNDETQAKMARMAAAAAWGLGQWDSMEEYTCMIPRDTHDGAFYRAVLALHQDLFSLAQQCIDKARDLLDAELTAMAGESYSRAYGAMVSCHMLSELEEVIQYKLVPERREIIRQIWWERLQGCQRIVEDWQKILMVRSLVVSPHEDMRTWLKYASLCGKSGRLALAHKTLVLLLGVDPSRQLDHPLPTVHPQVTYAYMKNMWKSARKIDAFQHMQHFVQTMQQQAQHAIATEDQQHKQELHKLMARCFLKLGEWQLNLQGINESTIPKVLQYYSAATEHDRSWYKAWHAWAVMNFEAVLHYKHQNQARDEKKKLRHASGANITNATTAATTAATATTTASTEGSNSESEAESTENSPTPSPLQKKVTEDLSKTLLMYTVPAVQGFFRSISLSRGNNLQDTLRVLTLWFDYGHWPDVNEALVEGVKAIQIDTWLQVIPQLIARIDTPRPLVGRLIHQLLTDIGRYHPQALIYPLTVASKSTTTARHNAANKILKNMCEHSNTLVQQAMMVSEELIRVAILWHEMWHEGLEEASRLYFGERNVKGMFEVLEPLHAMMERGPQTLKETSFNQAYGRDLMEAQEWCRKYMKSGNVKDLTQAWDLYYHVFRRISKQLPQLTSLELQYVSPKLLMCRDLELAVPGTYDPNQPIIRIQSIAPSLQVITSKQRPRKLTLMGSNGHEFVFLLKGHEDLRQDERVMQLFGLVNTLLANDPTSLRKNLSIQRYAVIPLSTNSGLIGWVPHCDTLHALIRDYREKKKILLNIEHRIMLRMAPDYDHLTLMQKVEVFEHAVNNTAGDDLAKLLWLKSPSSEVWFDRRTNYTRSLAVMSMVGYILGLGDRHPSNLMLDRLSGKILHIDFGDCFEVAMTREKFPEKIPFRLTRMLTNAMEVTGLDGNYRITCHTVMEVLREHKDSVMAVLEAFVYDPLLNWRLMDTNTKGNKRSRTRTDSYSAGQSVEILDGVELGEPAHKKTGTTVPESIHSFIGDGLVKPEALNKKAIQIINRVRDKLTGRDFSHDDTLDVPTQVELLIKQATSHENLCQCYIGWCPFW
# Sequence (Q9BVC4 whole entry partner, species assumed): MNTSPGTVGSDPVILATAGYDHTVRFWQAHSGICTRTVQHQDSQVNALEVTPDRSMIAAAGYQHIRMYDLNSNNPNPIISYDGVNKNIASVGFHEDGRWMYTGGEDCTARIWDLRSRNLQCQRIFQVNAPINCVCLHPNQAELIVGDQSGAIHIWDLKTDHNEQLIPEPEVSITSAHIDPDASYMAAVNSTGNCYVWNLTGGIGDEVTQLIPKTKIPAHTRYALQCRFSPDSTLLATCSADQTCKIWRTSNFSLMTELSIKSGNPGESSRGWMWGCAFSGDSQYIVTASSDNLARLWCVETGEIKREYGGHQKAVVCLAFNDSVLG
# experiment: In vitro mTOR kinase assay (TR-FRET)
# test.conditions: 0.25 nM mTOR+GBL, 8 uM ATP; values tied to compounds by order of Table 1; 'x or y' = two alternative values for separated diastereomers of unassigned stereochemistry; read-out: activity level (Ki) in the mTOR kinase assay
pKi: −log10 of the molar value.
// values below are reported pKi
recorded.endpoint: pKi

{"columns": ["compound", "assay.result"],
 "data": [
  ["CCNC(=O)Nc1ccc(-c2nc(N3CCOC[C@@H]3C)c3c(n2)[C@@](C)(CC(C)O)OC3)cc1 (stereo partly shown)", 8.70],
  ["C[C@H]1COCCN1c1nc(-c2ccc(Nc3cccc(=O)[nH]3)cc2)nc2c1CCCO2", 8.70],
  ["CC1(C)OCc2c(N3C[C@H]4CC[C@@H](C3)O4)nc(-c3cnc(N)nc3)nc21", 8.00],
  ["C[C@H]1COCCN1c1nc(-c2ccc(NC(=O)NCCS(C)(=O)=O)cc2)nc2c1CCC1(CC1)O2", 8.30]
]}

====

# measured.target: mTOR enzyme (mTOR(1360-2549)+GBL) (Homo sapiens)
# experiment: In vitro mTOR kinase assay (TR-FRET)
# Format: biochemical
# test.conditions: 0.25 nM mTOR+GBL, 8 uM ATP; values tied to compounds by order of Table 1; 'x or y' = two alternative values for separated diastereomers of unassigned stereochemistry; read-out: activity level (Ki) in the mTOR kinase assay
pKi: −log10 of the molar value.
recorded.endpoint: pKi

{"columns": ["compound", "assay.result"],
 "data": [
  ["C[C@H]1COCCN1c1nc(-c2ccc(NC(=O)Nc3ccn(C)n3)cc2)nc2c1CCC1(CC1)O2", 9.00],
  ["C[C@H]1COCCN1c1nc(-c2ccc3nc(N)[nH]c3c2)nc2c1CCCO2", 6.91],
  ["CCNC(=O)Nc1ccc(-c2nc(N3CCOC[C@@H]3C)c3c(n2)[C@@](C)(CCN2CCOCC2)OC3)cc1 [Example 76 eo (R)]", 7.82],
  ["CCNC(=O)Nc1ccc(-c2nc(N3CCOC[C@@H]3C)c3c(n2)C(C)(CCn2ccnc2C)OC3)cc1 (single isomer, unassigned) [Example 81 et (S)]", 8.15]
]}
